Source listed as patent US20250000826A1.

Test system: WSU-DLCL2 (human diffuse large B-cell lymphoma)
Assay: CellTiter-Glo cell viability, WSU-DLCL2
Assay type: cell-based
Conditions: WSUDLCL2, WSU-DLCL2, sensitive group, 3-4 days of culture, n=3, read-out: IC50 (μM), inhibitory effect on cell line
MEASURED PROPERTY: IC50 (µM)
Answers are plain numbers, in µM.

Bench note, WSU-DLCL2 (human diffuse large B-cell lymphoma): O=C(Nc1ccc([N+](=O)[O-])cc1Cl)c1cc(Cl)ccc1O [Niclosamide, niclosamide] , IC50 reads 0.21

###

Tested on: 786-0 (clear cell renal cell adenocarcinoma cell)
Assay: CellTiter-Glo cell viability, 786-0
Assay type: cell-based
Conditions: Homo sapiens; 786-0, insensitive group, 3-4 days of culture, n=3; read-out: IC50 (μM), inhibitory effect on cell line
MEASURED PROPERTY: IC50

Record O=C(Nc1ccc([N+](=O)[O-])cc1Cl)c1cc(Cl)ccc1O [Niclosamide, niclosamide] / 786-0 (clear cell renal cell adenocarcinoma cell), IC50 recorded as > 50 µM

###

Test system: SF-126 (human glioblastoma multiforme cell)
Assay: CellTiter-Glo cell viability, SF-126
Assay type: cell-based
Settings: SF-126, insensitive group, 3-4 days of culture, n=3, read-out: IC50 (μM), inhibitory effect on cell line
MEASURED PROPERTY: IC50

The reported IC50 of the molecule O=C(Nc1ccc([N+](=O)[O-])cc1Cl)c1cc(Cl)ccc1O [Niclosamide, niclosamide] was 16.2 µM
